Please find below IC50 data on HMG-CoA synthase (Rattus norvegicus, UniProt P17425) compiled from the literature.
Sequence (P17425 whole entry): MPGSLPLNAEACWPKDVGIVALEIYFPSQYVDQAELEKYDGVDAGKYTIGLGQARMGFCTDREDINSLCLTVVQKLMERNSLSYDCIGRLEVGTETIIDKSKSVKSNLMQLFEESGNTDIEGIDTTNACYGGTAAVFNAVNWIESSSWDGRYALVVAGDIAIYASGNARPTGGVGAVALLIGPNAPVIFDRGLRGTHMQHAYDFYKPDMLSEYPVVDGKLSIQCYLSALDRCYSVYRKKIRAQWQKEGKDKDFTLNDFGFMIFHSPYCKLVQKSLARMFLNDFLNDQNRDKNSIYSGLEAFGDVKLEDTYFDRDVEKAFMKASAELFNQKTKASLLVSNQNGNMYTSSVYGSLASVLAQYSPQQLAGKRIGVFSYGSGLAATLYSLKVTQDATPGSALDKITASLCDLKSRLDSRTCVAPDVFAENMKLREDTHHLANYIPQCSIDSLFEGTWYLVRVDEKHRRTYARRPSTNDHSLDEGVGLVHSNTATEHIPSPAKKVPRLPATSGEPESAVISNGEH
measured property: IC50 (nM)

* CC(=C\C(=O)O)/C=C(\C)CC(C)CCCCC1OC(=O)C1CF (stereo not shown) | 280
* CC(=O)CC(C)CCCCC1OC(=O)C1CO (stereo not shown) | 1600
* C[C@H]1C(=O)O[C@@H]1CCCCCCc1ccccc1 (relative stereo) | 1500
* CC(=C\C(=O)O)/C=C(\C)CC(C)CCCCC1OC(=O)C1C (stereo not shown) | 100
* CCCCCCCCCC[C@@H]1OC(=O)[C@H]1C (relative stereo) | 250
* CC=CCCCCC=CC(=O)NC1CC2(OC1=O)C(=O)C1OC1C1OC12 (stereo not shown) | 360
* COCC1C(=O)OC1CCCCC(C)CC(C)=O (stereo not shown) | 1700
* C[C@H]1C(=O)O[C@@H]1CCCCCCCCCc1ccccc1 (relative stereo) | 1200
* COC(=O)/C=C(C)/C=C(\C)CC(C)CCCCC1OC(=O)C1CC#N (stereo not shown) | 2900
* COCC1C(=O)OC1CCCCC(C)CC(C)(O)C(O)C(C)=CC(=O)OC (stereo not shown) | 1900
* COCC1C(=O)OC1CCCCC(C)CC(C)OC (stereo not shown) | 5500
* C[C@H]1C(=O)O[C@@H]1CCCCCc1ccccc1 (relative stereo) | 1400
* CC=CCCCCC=CC(=O)NC1CC2(OC1=O)C(=O)C1OC1C(O)C2O (stereo not shown) | 2500
* CC(=C\C(=O)O)/C=C(\C)CC(C)CCCCC1OC(=O)C1CCl (stereo not shown) | 300
* COC(=O)C=C(C)C1OC1(C)CC(C)CCCCC1OC(=O)C1CO (stereo not shown) | 80
